The origin of these recorded values is the nanobody polyreactivity screen of Harvey et al. (2022).

- assay notes: yeast display, Sf9 membrane polyspecificity reagent, FACS + sequencing; frameworks hold sequencing errors
measured parameter: polyreactivity (PSR sort gate)

Before answering, review these 5 worked examples.
// recorded polyreactivity (PSR sort gate) for QVQLQESGGGLVQAGGSLRLSCAASGYISHADEMGWNRQAPGKEHELVASISNGGSTNYADSVKGRFTISRDNAKNTVYLQMNSLKSEDTGVYYCAAWTGQVDIHYYWGQGTQVPVSS : low polyreactivity

// recorded polyreactivity (PSR sort gate) for QVQLVESGGGLVQAGGSLRISCAASGSIFGYYVMGWYRQAPGKERELVAAITGSVGDTYYADSVKGRFTISRDNAKNTVYLQMNSLKPVDTAVYYCNASNISPFRLLRSPMDYCGQGTQVTVSS : low polyreactivity

// recorded polyreactivity (PSR sort gate) for QVQLVESGGGLVQAGGSRRLSCAASGSIFSGNTMGWYRQAPGKERELVAAISSGGSTKYADSVKGRFTISRDNAKNTVYFQMNRLNPEDSAVYFCGATSSYRLRDRHRIWYGYWGQGTEVTVSS : high polyreactivity

// recorded polyreactivity (PSR sort gate) for QVQHVESGGGLVQAGGSLRLSCAASGSTFYHNAMGWYRQAPGKERELVAAITSGTSTYYADSVKGRFTISRDNAKNTVYLHMNSLKPEDTAVYYCAADSPWGGGYFVLYNYWGQGTQVTVSS : low polyreactivity

// recorded polyreactivity (PSR sort gate) for QVQLVESGGGLVQAGGSLRLSCAASGFTFYPYAMGCYRQAPGKERELVDAISNGASTHYADSVKGRFTISRDNAKNTVYLQMNSLKPEDTAVYYCNAYTRYPFYFVTSKYDYWGQGTQVTVSS : low polyreactivity

Others:
// recorded polyreactivity (PSR sort gate) for QVQLVESGGGLVQAGGSLRLSCAASGSIFGVNAMGWYRQAPGKERELVASISLSDDRTYYADSVKGRFTISRDNAKNTVYLQMNSLKPEDTAVYYCARRILWYWDVYPSLAEYDYWGQGTQVTVSS : low polyreactivity

// recorded polyreactivity (PSR sort gate) for QVHLVDSGGGLVQAGGSLRLSCAASGRTFYYYAMGWYRQAHGKERELVATISRTGTTNYADSVKGRFTISRDNAKNTVYLQMNSLKPEDTAVYYCAAERATPWPKNDYWGQGTQVTVSS : high polyreactivity

// recorded polyreactivity (PSR sort gate) for QVQLVESGRGLVQAGGSLRLSCAPSGSNFPPNAMGWYRQAPGKEREFVASITSSGGITNYADSVKGRFTISRDNAKNTVYLQMNSLKPEDTAVYFCAAVQTWRWVYARDYWGQGTQVTVSS : high polyreactivity

// recorded polyreactivity (PSR sort gate) for QVQLVESGGGLVQAGGSLRLSCAASGRIFGWYAMGWYRQAPGKERELVAGISSSSGSTNYADSVKGRFSISRDNAKNTVYLQMNSLKPEDTAVYYCAADGGGTYYSFYYWGQGTQVTVSS : low polyreactivity

// recorded polyreactivity (PSR sort gate) for QVQLVESGGGLVQAGGSLRLSCAASGRIVYVNVMGWYRQAPGKERELVAAINWSDGSTYYADSVKGRFTISRDNAKNTVYLQMNSLKPEETAVYYFNRRGPYGYKAWAIGTIGDLDYWGHGTQVTVSS : low polyreactivity

// recorded polyreactivity (PSR sort gate) for QVHLVESGGGLVQAGGILRLSCAASMVWYRQAPGKERELVAAINTRTGTTYYADSVKGRFTISRDNAKNTVYLQMNSLKPEDTAVYYCAARTYRTRYYYWGQGTQVTVSS : high polyreactivity
